Data origin, for the record: patent US20070117743A1

Test system: LoVo
ASSAY_DETAILS: SRB colorimetric assay of cell growth and viability, LoVo
Type: cell-based, human
CONDITION_CONTEXT: 48 hours exposure, SRB
METRIC_NAME: GI50 (nM)
One number for each entry, in nM.

Query :: Find the recorded GI50 belonging to C/C=C1\NC(=O)[C@H](Cc2ccccc2)NC(=O)[C@@H](C(C)C)NC(=O)[C@@H]([C@@H](C)CC)NC(=O)[C@H](NC(=O)[C@H](NC(=O)[C@H](CCCC[N+](C)(C)C)NC(=O)[C@H]2CCCN2C(=O)[C@H](NC(=O)[C@@H](NC(=O)[C@@H](NC(=O)[C@H](NC(=O)CC[C@@H](C)CC)C(C)C)[C@@H](C)O)C(C)C)C(C)C)[C@@H](C)CC)[C@@H](C)OC(=O)[C@H](C(C)C)NC1=O [Compound 93, [N^ε(Me)3-Lys^8, (4S)-MeHex^14]-KF] and report it.
Result :: 80.8
